Test system: 292921-168-R tumor spheroid viability;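 further: spheroids exposed to compounds for 7 days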
procedure-details: Anticancer human tumor 292921-168-R patient-derived pancreatic carcinoma cell line growth inhibition
condition: second compound 1 µM; first compound 0.0949 µM; hits give low values; spheroids with HUVEC and MSC
parameter: viability, T/C

Cc1sc2c(c1C)C(c1ccc(Cl)cc1)=NC(CC(=O)Nc1ccc(O)cc1)c1nnc(C)n1-2 (centres undefined) + Cn1nnc2c(C(N)=O)ncn2c1=O; 117%
Cn1ncnc1[C@H]1c2n[nH]c(=O)c3cc(F)cc(c23)N[C@@H]1c1ccc(F)cc1 + Cn1nnc2c(C(N)=O)ncn2c1=O; 73.8%
O=C(c1cc(Cc2n[nH]c(=O)c3ccccc23)ccc1F)N1CCN(C(=O)C2CC2)CC1 + Cn1nnc2c(C(N)=O)ncn2c1=O; 89.2%

Let's switch to this compound now.
input: Reported viability, T/C for CNCc1ccc(-c2cc(-c3nc(-c4ccc(S(=O)(=O)C(C)C)cc4)cnc3N)on2)cc1 + Cn1nnc2c(C(N)=O)ncn2c1=O : what is it?
output: 70.7%
